Tested on: Staphylococcus aureus
Test: Antibacterial activity against Staphylococcus aureus 133 by broth microdilution method
Type: functional
Below, each entry is listed alongside its reported MIC.

{"Cpd smiles": "CN(C)C(=O)c1cc(Cn2c(=O)cc(Nc3ccc4c(c3)CCC4)[nH]c2=O)on1", "Measurement units": "µg/mL", "Reading qualifier": "=", "MIC": 32}
{"Cpd smiles": "O=C(Cn1c(=O)cc(Nc2ccc3c(c2)CCC3)[nH]c1=O)c1ccc(Br)cc1", "Measurement units": "µg/mL", "Reading qualifier": ">", "MIC": 256}
{"Cpd smiles": "CCOC(=O)Cn1c(=O)cc(Nc2ccc3c(c2)CCC3)[nH]c1=O", "Measurement units": "µg/mL", "Reading qualifier": "=", "MIC": 16}
{"Cpd smiles": "CCc1cc(Nc2cc(=O)n(CCCO)c(=O)[nH]2)ccc1C", "Measurement units": "µg/mL", "Reading qualifier": "=", "MIC": 8}
{"Cpd smiles": "COC(=O)c1ccc(Cn2c(=O)cc(Nc3ccc4c(c3)CCC4)[nH]c2=O)o1", "Measurement units": "µg/mL", "Reading qualifier": "=", "MIC": 32}
{"Cpd smiles": "O=c1cc(Nc2ccc3c(c2)CCC3)[nH]c(=O)n1CC1CC1", "Measurement units": "µg/mL", "Reading qualifier": "=", "MIC": 4}
